Cited source for all entries: paper PMC11354745

Test system: HIV-1 wild-type (WT) strain (IIIB)
Experiment: Anti-HIV activity in MT-4 cells (MTT method), HIV-1 IIIB
Type: cell-based
Details: Human immunodeficiency virus 1, IIIB, MT4, read-out: EC50 IIIB
Value kind: pEC50
One number for each entry, as −log10 of the molar value.

# map each compound to its pEC50
1. Cc1cc(C#N)cc(C)c1Oc1nc(Nc2ccc(NC(=O)[C@H](Cc3cn(C(=O)OC(C)(C)C)cn3)NC(=O)OC(C)(C)C)cc2)nc2ccsc12 [5c]
2. Cc1cc(C#N)cc(C)c1Oc1nc(Nc2ccc(NC(=O)CN(C)C(=O)OC(C)(C)C)cc2)nc2ccsc12 [5o]
3. Cc1cc(C#N)cc(C)c1Oc1nc(Nc2ccc(NC(=O)[C@@H](N)C(C)C)cc2)nc2ccsc12 [5i]
4. Cc1cc(C#N)cc(C)c1Oc1nc(Nc2ccc(NC(=O)[C@@H](NC(=O)OC(C)(C)C)C(C)C)cc2)nc2ccsc12 [5f]
5. Cc1cc(C#N)cc(C)c1Oc1nc(Nc2ccc(NC(=O)[C@@H](N)Cc3c[nH]cn3)cc2)nc2ccsc12 [5e]
6. Cc1cc(C#N)cc(C)c1Oc1nc(Nc2ccc(NC(=O)[C@H](N)CC(C)C)cc2)nc2ccsc12 [5n]
7. Cc1cc(C#N)cc(C)c1Oc1nc(Nc2ccc(C#N)cc2)nc(N)c1Br [ETR, etravirine, reference compound]

RESULT:
1. 6.17
2. 6.06
3. 7.38
4. 6.07
5. 7.28
6. 7.21
7. 8.52

# map each compound to its pEC50
1. Cc1ccnc2c1NC(=O)c1cccnc1N2C1CC1 [NVP, nevirapine, reference compound]
2. Cc1cc(C#N)cc(C)c1Oc1nc(Nc2ccc(NC(=O)C3CC(O)CN3C(=O)OC(C)(C)C)cc2)nc2ccsc12 (stereo not drawn) [5p]
3. Cc1cc(C#N)cc(C)c1Oc1nc(Nc2ccc(NC(=O)C3CC(O)CN3)cc2)nc2ccsc12 (stereo not drawn) [5l]
4. Cc1cc(C#N)cc(C)c1Oc1nc(Nc2ccc(NC(=O)[C@H](Cc3ccccc3)NC(=O)OC(C)(C)C)cc2)nc2ccsc12 [5d]
5. Cc1cc(C#N)cc(C)c1Oc1nc(Nc2ccc(NC(=O)C3CCCN3)cc2)nc2ccsc12 (stereo not drawn) [5k]
6. Cc1cc(C#N)cc(C)c1Oc1nc(Nc2ccc(NC(=O)[C@@H](N)Cc3ccccc3)cc2)nc2ccsc12 [5h]

RESULT:
1. 6.63
2. 5.59
3. 7.23
4. 6.11
5. 7.27
6. 7.26

# map each compound to its pEC50
1. Cc1cc(C#N)cc(C)c1Oc1nc(Nc2ccc(NC(=O)[C@@H](CC(C)C)NC(=O)OC(C)(C)C)cc2)nc2ccsc12 [5m]
2. Cc1cc(C#N)cc(C)c1Oc1nc(Nc2ccc(NC(=O)C3CCCN3C(=O)OC(C)(C)C)cc2)nc2ccsc12 (stereo not drawn) [5g]

RESULT:
[5.01, 6.03]
